Form field: apparent inhibition (interference) (one value per entry).
Test: colorimetric readout interference by compounds, confirmation, artefact control for Scp-1 inhibitor project, biochemical, single concentration (AID 540313);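 also: compounds added after enzyme reaction finished so only phosphate colour detection is probed; plate controls were DMSO wells with completed Scp-1 reaction for no effect and substrate wells lacking enzyme for full effect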
Conditions: Colorimetric interference counterscreen, malachite green absorbance 630 nm; at 20 µM; hits give high values
The whole screen tested about 2,500 compounds, of which fewer than 10 were called active. These entries were drawn from the full list.
property-measured: apparent inhibition (interference)

| cpd-smiles | property-measured | result |
| --- | --- | --- |
| Cc1cc(C(=O)OCC(=O)NCc2ccco2)c(C)n1-c1ccccc1 | apparent inhibition (interference) | -9.53% (inactive) |
| Cc1c(Cl)cnc(NC(=O)COC(=O)c2ccc(S(=O)(=O)NCc3ccco3)cc2)c1Cl | apparent inhibition (interference) | -10.4% (inactive) |
| Cc1ccn2c(=O)nc(SCC(=O)NCc3ccc4c(c3)OCO4)nc2c1 | apparent inhibition (interference) | -8.16% (inactive) |
| O=C(COC(=O)/C=C/c1ccc(Br)o1)Nc1cccc(S(=O)(=O)N2CCOCC2)c1 | apparent inhibition (interference) | -18.6% (inactive) |
| O=c1[nH]n(-c2ccc([N+](=O)[O-])cc2)c(=O)c2ccccc12 | apparent inhibition (interference) | -12.9% (inactive) |
